Origin of measurements: patent US6500803B1

Target: factor VIIa/tissue factor (Homo sapiens, UniProt P08709)
Construct: human factor VIIa and TF (5 nM and 10 nM, respective final concentration)
Sequence (P08709 213-466 limits assumed): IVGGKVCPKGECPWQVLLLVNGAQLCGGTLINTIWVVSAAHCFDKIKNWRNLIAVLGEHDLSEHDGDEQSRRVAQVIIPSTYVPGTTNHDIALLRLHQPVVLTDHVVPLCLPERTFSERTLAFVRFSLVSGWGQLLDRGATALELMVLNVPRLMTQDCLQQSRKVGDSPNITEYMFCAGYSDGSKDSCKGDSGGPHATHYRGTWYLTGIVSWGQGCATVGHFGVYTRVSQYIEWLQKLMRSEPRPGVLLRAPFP
Sequence (P08709 61-212 limits assumed): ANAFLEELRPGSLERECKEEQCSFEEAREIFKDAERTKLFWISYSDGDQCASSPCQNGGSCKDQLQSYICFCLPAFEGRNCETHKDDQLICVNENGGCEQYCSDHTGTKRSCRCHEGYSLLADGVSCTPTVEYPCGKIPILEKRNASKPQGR
Sequence (P13726 33-295 partner): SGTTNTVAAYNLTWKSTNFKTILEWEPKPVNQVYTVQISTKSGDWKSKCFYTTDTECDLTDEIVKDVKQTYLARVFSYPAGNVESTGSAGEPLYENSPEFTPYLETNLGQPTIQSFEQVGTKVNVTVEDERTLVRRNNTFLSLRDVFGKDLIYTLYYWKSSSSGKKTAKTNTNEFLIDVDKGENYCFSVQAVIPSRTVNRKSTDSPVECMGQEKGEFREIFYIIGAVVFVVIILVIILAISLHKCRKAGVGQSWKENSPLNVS
Assay: Factor VIIa (FVIIa) chromogenic assay
Settings: human factor VIIa 5 nM and TF 10 nM, chromogenic substrate S-2288 500 μM, 15 min preincubation, 25° C., pH 8.15
pKi: −log10 of the molar value.
Rule: pKi of 6 or more gives label 1; anything lower gives label 0.

Consider the worked cases shown below.
compound	assayedSystem	groupLabel
C=CCOC(=O)N[C@@H](Cc1ccc(C(=N)N)cc1)C(=O)N[C@@H](CCC(=O)O)C(=O)NCCCN	factor VIIa/tissue factor (Homo sapiens, UniProt P08709)	label 0
C=CCOC(=O)N[C@@H](Cc1ccc(C(=N)N)cc1)C(=O)N[C@@H](CCC(=O)O)C(=O)NCc1ccc(N)cc1 [Example 1, Alloc-pAph-Glu-(4-aminobenzyl)amide]	factor VIIa/tissue factor (Homo sapiens, UniProt P08709)	label 1
C=CCOC(=O)N[C@@H](Cc1ccc(C(=N)N)cc1)C(=O)N[C@@H](CCC(=O)O)C(=O)NCc1cccc(N)c1 [Example 2, Alloc-pAph-Glu-(3-aminobenzyl)amide]	factor VIIa/tissue factor (Homo sapiens, UniProt P08709)	label 1
C=CCOC(=O)N[C@@H](Cc1ccc(C(=N)N)cc1)C(=O)N[C@@H](CCC(=O)O)C(=O)NCCCNS(=O)(=O)c1cccc(Br)c1	factor VIIa/tissue factor (Homo sapiens, UniProt P08709)	label 1
C=CCOC(=O)N[C@@H](Cc1ccc(C(=N)N)cc1)C(=O)N[C@@H](CCC(=O)O)C(=O)NC1CCN(S(=O)(=O)c2cccc(Br)c2)CC1	factor VIIa/tissue factor (Homo sapiens, UniProt P08709)	label 1

Input: Could you tell me if the measured pKi of C=CCOC(=O)N[C@@H](Cc1ccc(C(=N)N)cc1)C(=O)N[C@@H](CCC(=O)O)C(=O)NCc1cccc(CNS(=O)(=O)c2cccc3ccccc23)c1 reaches 6 or more?
Output: label 0

Input: Could you tell me if the measured pKi of C=CCOC(=O)N[C@@H](Cc1ccc(C(=N)N)cc1)C(=O)N[C@@H](CCC(=O)O)C(=O)NCc1cccc(CNS(C)(=O)=O)c1 reaches 6 or more?
Output: label 0

Input: Could you tell me if the measured pKi of C=CCOC(=O)N[C@@H](Cc1ccc(C(=N)N)cc1)C(=O)N[C@@H](CCC(=O)O)C(=O)Nc1nc(CC(N)=O)cs1 reaches 6 or more?
Output: label 0

Input: Could you tell me if the measured pKi of C=CCOC(=O)N[C@@H](Cc1ccc(C(=N)N)cc1)C(=O)N[C@@H](CCC(=O)O)C(=O)NCc1ccccc1N [Example 5, Alloc-pAph-Glu-(2-aminobenzyl)amide] reaches 6 or more?
Output: label 1

Input: Could you tell me if the measured pKi of C=CCOC(=O)N[C@@H](Cc1ccc(C(=N)N)cc1)C(=O)N[C@@H](CC(=O)O)C(=O)NCc1cccc(N)c1 [Example 14, Alloc-pAph-Asp-(3-aminobenzyl)amide] reaches 6 or more?
Output: label 0

Input: Could you tell me if the measured pKi of C=CCOC(=O)N[C@@H](Cc1ccc(C(=N)N)cc1)C(=O)N[C@@H](CCC(=O)O)C(=O)NC1CCN(S(=O)(=O)c2cccc(C(F)(F)F)c2)CC1 reaches 6 or more?
Output: label 1

Input: Could you tell me if the measured pKi of C=CCOC(=O)N[C@@H](Cc1ccc(C(=N)N)cc1)C(=O)N[C@@H](CCC(=O)O)C(=O)NC1c2ccccc2-c2ccc(N)cc21 (mixture of isomers) reaches 6 or more?
Output: label 1

Input: Could you tell me if the measured pKi of C=CCOC(=O)N[C@@H](Cc1ccc(C(=N)N)cc1)C(=O)N[C@@H](CCC(=O)O)C(=O)NCc1cccc(CNS(=O)(=O)N(C)C)c1 reaches 6 or more?
Output: label 1

Input: Could you tell me if the measured pKi of C=CCOC(=O)N[C@@H](Cc1ccc(C(=N)N)cc1)C(=O)N[C@@H](CCCC(=O)O)C(=O)NCc1cccc(N)c1 [Example 15, Alloc-pAph-2-Aad-(3-aminobenzyl)amide] reaches 6 or more?
Output: label 0

Input: Could you tell me if the measured pKi of C=CCOC(=O)N[C@@H](Cc1ccc(C(=N)N)cc1)C(=O)N[C@@H](CCC(=O)O)C(=O)NCc1cccc(CN)c1 reaches 6 or more?
Output: label 0

Input: Could you tell me if the measured pKi of C=CCOC(=O)N[C@@H](Cc1ccc(C(=N)N)cc1)C(=O)N[C@@H](CCC(=O)O)C(=O)NCc1cnc(C)nc1N reaches 6 or more?
Output: label 0

Input: Could you tell me if the measured pKi of C=CCOC(=O)N[C@@H](Cc1ccc(C(=N)N)cc1)C(=O)N[C@@H](CCC(=O)O)C(=O)NC1CCN(S(=O)(=O)c2cccc(Cl)c2)CC1 reaches 6 or more?
Output: label 1
